Item-by-item account of pIC50
Test system: bovine diarrhoea virus (BVDV)
assay name: BVDV antiviral assay in MDBK cells, plaque assay of secreted virus
Format: cell-based
cond: Bovine viral diarrhea virus isolates and strains; MOI=0.5, MDBK cells; read-out: IC50 against BVDV
pIC50: −log10 of the molar value.
metric: pIC50

INSERT INTO assay_data (molecule, metric, numeric_result) VALUES
  ('CCCC(C)NC(=O)C1[C@H](O)[C@@H](O)CN1C(=O)c1cccc(N(C)C)c1 (stereo partly drawn) [9viiG]', 'pIC50', 4.52),
  ('CC(C)NC(=O)C1[C@H](O)[C@@H](O)CN1C(=O)c1ccoc1 (stereo partly drawn) [9viiiF]', 'pIC50', 4.52),
  ('CC(C)(C)CC(C)(C)NC(=O)C1[C@H](O)[C@@H](O)CN1C(=O)c1ccccc1 (stereo partly drawn) [9iiA]', 'pIC50', 4.60);
